Molecular target: T1, rat PRLR on Nb2-11 rat lymphoma cells (rat, UniProt P05710 20-610)
T1 sequence (looked up): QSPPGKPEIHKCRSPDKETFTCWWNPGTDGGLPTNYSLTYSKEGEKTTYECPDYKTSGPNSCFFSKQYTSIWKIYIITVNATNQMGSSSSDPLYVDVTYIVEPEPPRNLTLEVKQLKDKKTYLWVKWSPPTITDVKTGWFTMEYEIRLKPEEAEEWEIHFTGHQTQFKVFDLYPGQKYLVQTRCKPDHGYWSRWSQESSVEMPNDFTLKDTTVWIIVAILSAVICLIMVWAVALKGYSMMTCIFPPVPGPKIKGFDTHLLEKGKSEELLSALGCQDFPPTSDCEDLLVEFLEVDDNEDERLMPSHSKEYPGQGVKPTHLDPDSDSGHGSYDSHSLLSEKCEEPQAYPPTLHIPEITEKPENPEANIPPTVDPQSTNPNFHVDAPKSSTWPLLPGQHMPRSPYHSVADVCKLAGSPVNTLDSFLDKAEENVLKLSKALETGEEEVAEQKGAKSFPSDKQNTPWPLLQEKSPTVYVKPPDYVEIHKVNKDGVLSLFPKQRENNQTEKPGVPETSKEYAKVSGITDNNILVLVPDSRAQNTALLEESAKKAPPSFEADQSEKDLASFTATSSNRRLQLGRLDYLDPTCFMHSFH
Experiment: cell-based or functional assay
Observed property: Nb2-11 proliferation IC50 (µg/mL)
Write down the numeric answer in µg/mL and omit the unit.

>  <Binder>
Ab13 (antibody, V domains shown, murine monoclonal, isotype G2a; also called murine Ab13) VH: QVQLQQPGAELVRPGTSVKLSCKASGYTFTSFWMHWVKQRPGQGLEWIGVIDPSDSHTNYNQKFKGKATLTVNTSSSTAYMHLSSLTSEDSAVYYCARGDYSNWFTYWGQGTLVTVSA VL: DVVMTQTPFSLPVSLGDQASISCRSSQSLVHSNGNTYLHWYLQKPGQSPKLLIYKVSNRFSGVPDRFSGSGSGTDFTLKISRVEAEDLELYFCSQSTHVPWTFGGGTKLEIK

>  <Observed property>
Nb2-11 proliferation IC50

>  <Assay value>
7.56

$$$$

Input: Look up Nb2-11 proliferation IC50: Ab5 (antibody, V domains shown, murine monoclonal, isotype G2a; also called murine Ab5) VH: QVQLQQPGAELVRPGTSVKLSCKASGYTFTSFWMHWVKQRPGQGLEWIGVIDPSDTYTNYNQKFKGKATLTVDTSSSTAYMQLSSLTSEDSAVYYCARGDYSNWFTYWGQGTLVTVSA VL: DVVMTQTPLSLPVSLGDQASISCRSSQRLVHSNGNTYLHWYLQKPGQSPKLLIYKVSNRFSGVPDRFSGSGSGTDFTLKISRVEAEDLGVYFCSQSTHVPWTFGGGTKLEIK
Output: 0.91
